# ASSAY_TARGET: HCV polymerase (NS5B) type 1b (Hepatitis C virus genotype 1b, UniProt P26663)
# Construct: a region encoding NS5B (J Virol 1991 March, 65(3), 1105-13, 544 amino acids after deletion of 47 amino acids on the C-terminal); 6xHis (C); made in house; host or cells: Escherichia coli
# ASSAY_PROCEDURE: Assay of enzyme (HCV polymerase) inhibitory activity, type 1b enzyme
# Format: biochemical, HCV BK strain (type 1b)
# CONDITION_CONTEXT: HCV polymerase inhibitory activity (IC50), 1b, type 1b enzyme 0.5 μg/ml, 25° C., 60 min
MEASUREMENT_KIND: IC50

Guide cases for IC50, answers given:
compound=CCOc1ccc(CNC(=O)[C@H]2CN(c3cnc4cncnc4n3)CCN2S(=O)(=O)c2ccc(OC(F)(F)F)cc2)cc1 assay_target="HCV polymerase (NS5B) type 1b (Hepatitis C virus genotype 1b, UniProt P26663)" measurement_kind=IC50 result="< 100 nM"
compound=CCC(F)(F)c1ccc(CNC(=O)[C@H]2CN(C(=O)Nc3csc(C)n3)CCN2S(=O)(=O)c2ccc(OC(F)(F)F)cc2)cc1 assay_target="HCV polymerase (NS5B) type 1b (Hepatitis C virus genotype 1b, UniProt P26663)" measurement_kind=IC50 result="< 100 nM"
compound="CN(C)c1ccc(CNC(=O)C2CN(C(=O)Cc3ccccc3)CCN2S(=O)(=O)c2ccc(I)cc2)cc1 (stereo not drawn)" assay_target="HCV polymerase (NS5B) type 1b (Hepatitis C virus genotype 1b, UniProt P26663)" measurement_kind=IC50 result="100 to 1000 nM"
compound=CC(=O)N1CCN(S(=O)(=O)c2ccc(OC(F)(F)F)cc2)[C@@H](C(=O)NCc2ccc(C(C)(C)C)cc2)C1 assay_target="HCV polymerase (NS5B) type 1b (Hepatitis C virus genotype 1b, UniProt P26663)" measurement_kind=IC50 result="< 100 nM"
compound=Cc1nc(N2CCN(S(=O)(=O)c3ccc(C(F)(F)F)cc3)[C@@H](C(=O)NCc3ccc(N(C)C)cc3)C2)sc1C(=O)O assay_target="HCV polymerase (NS5B) type 1b (Hepatitis C virus genotype 1b, UniProt P26663)" measurement_kind=IC50 result="< 100 nM"
compound="COCC(=O)N1CCN(S(=O)(=O)c2ccc(C(C)C)cc2)C(C(=O)NCc2ccc(C(F)(F)F)cc2)C1 (stereo not drawn)" assay_target="HCV polymerase (NS5B) type 1b (Hepatitis C virus genotype 1b, UniProt P26663)" measurement_kind=IC50 result="> 1000 nM"
compound=CCC(F)(F)c1ccc(CNC(=O)[C@H]2CN(C(=O)Nc3ccnc(CO)c3)CCN2S(=O)(=O)c2ccc(OC(F)(F)F)cc2)cc1 assay_target="HCV polymerase (NS5B) type 1b (Hepatitis C virus genotype 1b, UniProt P26663)" measurement_kind=IC50 result="< 100 nM"
compound=Cc1nc(N2CCN(S(=O)(=O)c3ccc(C(F)(F)F)cc3)[C@@H](C(=O)NCc3ccc(C(C)C)cc3)C2)sc1C(N)=O assay_target="HCV polymerase (NS5B) type 1b (Hepatitis C virus genotype 1b, UniProt P26663)" measurement_kind=IC50 result="< 100 nM"

Exercise: Recorded IC50 for COC(=O)C(C)(C)c1ccc(CNC(=O)[C@H]2CN(C(C)=O)CCN2S(=O)(=O)c2ccc(C(C)C)cc2)cc1 , please?
Key: 100 to 1000 nM

###

# ASSAY_TARGET: HCV polymerase (NS5B) type 1a (Hepatitis C virus genotype 1a, UniProt P26664)
# Construct: made in house; host or cells: Escherichia coli (by the 'similar method' of the 1b enzyme)
# ASSAY_PROCEDURE: Assay of enzyme (HCV polymerase) inhibitory activity, type 1a enzyme
# Format: biochemical, HCV type 1a (cloned from the blood of patients)
# CONDITION_CONTEXT: HCV polymerase inhibitory activity IC50, 1a, type 1a enzyme
Documented IC50 across a set of molecules

Previously resolved entries follow.
smiles_text=CCCc1ccc(CNC(=O)[C@H]2CN(c3nc4cn[nH]c(=O)c4s3)CCN2S(=O)(=O)c2ccc(C(F)(F)F)cc2)cc1 measurement_kind=IC50 result="< 100 nM"
smiles_text=O=C(NCc1ccc(OC(F)(F)F)cc1)[C@H]1CN(c2nn3c(=O)c(C(F)(F)F)nnc3s2)CCN1S(=O)(=O)c1ccc(OC(F)(F)F)cc1 measurement_kind=IC50 result="100 to 1000 nM"
smiles_text=CC(C)(C)c1ncc2sc(N3CCN(S(=O)(=O)c4ccc(OC(F)(F)F)cc4)[C@@H](C(=O)NCc4ccc(OC(F)(F)F)cc4)C3)nc2n1 measurement_kind=IC50 result="< 100 nM"
smiles_text=CC(C)c1cc(=O)nc2sc(N3CCN(S(=O)(=O)c4ccc(OC(F)(F)F)cc4)[C@@H](C(=O)NCc4ccc(OC(F)(F)F)cc4)C3)nn12 measurement_kind=IC50 result="< 100 nM"
smiles_text=O=C(NCc1ccc(OC(F)(F)F)cc1)[C@H]1CN(c2nc3ncncc3s2)CCN1S(=O)(=O)c1ccc(OC(F)(F)C(F)F)cc1 measurement_kind=IC50 result="< 100 nM"

Now, please, on to the next molecule.
Exercise: Given the entry COc1cccc(CCNC(=O)[C@H]2CN(C(C)=O)CCN2S(=O)(=O)c2ccc(OC(F)(F)F)cc2)c1 , report its measured IC50.
Key: > 1000 nM

###

# ASSAY_TARGET: HCV polymerase (NS5B) type 1a (Hepatitis C virus genotype 1a)
# Construct: made in house; host or cells: Escherichia coli (by the 'similar method' of the 1b enzyme)
# ASSAY_PROCEDURE: Assay of enzyme (HCV polymerase) inhibitory activity, type 1a enzyme
# Type: biochemical, HCV type 1a (cloned from the blood of patients)
# CONDITION_CONTEXT: HCV polymerase inhibitory activity (IC50), 1a, type 1a enzyme 1.5 μg/ml, 25° C., 60 min
pIC50: −log10 of the molar value.
Measured pIC50 by item

Use the examples below as a reference point.
molecule=CC(C)c1ccc(CNC(=O)[C@H]2CN(C(=O)Nc3ccc(OCC(=O)O)cc3)CCN2S(=O)(=O)c2ccc(C(F)(F)F)cc2)cc1 result="< 6.00"
molecule="CC(=O)N1CCN(S(=O)(=O)c2ccc(C(C)C)cc2)C(C(=O)NCc2ccc(OC(F)(F)F)cc2)C1 (stereo not shown)" result="6.00 to 7.00"
molecule=Cc1nc(N2CCN(S(=O)(=O)c3ccc(OC(F)(F)F)cc3)[C@@H](C(=O)NCc3ccc(C(C)C)cc3)C2)sc1C(=O)OC(C)(C)C result="< 6.00"
molecule=CCCc1ccc(CNC(=O)[C@H]2CN(c3n[nH]c(=O)s3)CCN2S(=O)(=O)c2ccc(OC(F)(F)F)cc2)cc1 result="> 7.00"
molecule=Cc1nc(N2CCN(S(=O)(=O)c3ccc4c(c3)CCCCC4)[C@@H](C(=O)NCc3ccc(C(C)C)cc3)C2)sc1C(=O)O result="> 7.00"

Exercise: Request - read-out pIC50 | tested on HCV polymerase (NS5B) type 1a (Hepatitis C virus genotype 1a) | molecule CCN(C)c1ccc(CNC(=O)[C@H]2CN(c3cnc4cncnc4n3)CCN2S(=O)(=O)c2ccc(OC(F)(F)F)cc2)cc1
Key: > 7.00

Exercise: Hi! What's the reported pIC50 for CN(C)c1ccc(CNC(=O)C2CN(C(=O)OC(C)(C)C)CCN2S(=O)(=O)c2ccc(I)cc2)cc1 (stereo not shown) on HCV polymerase (NS5B) type 1a (Hepatitis C virus genotype 1a)?
Key: < 6.00

Exercise: // map CCC(F)(F)c1ccc(CNC(=O)[C@H]2CN(c3nc4nc[nH]c(=O)c4s3)CCN2S(=O)(=O)c2ccc(OC(F)(F)F)cc2)cc1 to recorded pIC50 (system: HCV polymerase (NS5B) type 1a (Hepatitis C virus genotype 1a))
Key: > 7.00

###

# ASSAY_TARGET: HCV polymerase (NS5B) type 1a (Hepatitis C virus genotype 1a)
# Construct: made in house; host or cells: Escherichia coli (by the 'similar method' of the 1b enzyme)
# ASSAY_PROCEDURE: Assay of enzyme (HCV polymerase) inhibitory activity, type 1a enzyme
# Type: biochemical, HCV type 1a (cloned from the blood of patients)
# CONDITION_CONTEXT: HCV polymerase inhibitory activity IC50, 1a, type 1a enzyme
pIC50: −log10 of the molar value.
MEASUREMENT_KIND: pIC50

Here's what some known entries look like.
smiles_text=O=C(NCc1ccc(OC(F)F)cc1F)[C@H]1CN(c2nc3ncncc3s2)CCN1S(=O)(=O)c1ccc(OC(F)(F)F)cc1 measurement_kind=pIC50 result="> 7.00"
smiles_text=CCC(C)(C)c1ccc(CNC(=O)[C@H]2CN(c3nc(Cl)c(C(=O)O)s3)CCN2S(=O)(=O)c2ccc(OC(F)(F)F)cc2)cc1 measurement_kind=pIC50 result="> 7.00"
smiles_text=Cc1cnc(CNC(=O)[C@H]2CN(c3cnc4cncnc4n3)CCN2S(=O)(=O)c2ccc(OC(F)(F)F)cc2)cn1 measurement_kind=pIC50 result="< 6.00"
smiles_text=O=C(NCc1ccc(OC(F)(F)F)cc1)[C@H]1CN(c2cnc3cnccc3n2)CCN1S(=O)(=O)c1ccc(OC(F)(F)F)cc1 measurement_kind=pIC50 result="> 7.00"
smiles_text=Cc1nnc2sc(N3CCN(S(=O)(=O)c4ccc(OC(F)(F)F)cc4)[C@@H](C(=O)NCc4ccc(OC(F)(F)F)cc4)C3)nn2c1=O measurement_kind=pIC50 result="> 7.00"

Exercise: Consider the compound CCCc1ccc(CNC(=O)[C@H]2CN(c3cnc4cccc(C(=O)O)c4n3)CCN2S(=O)(=O)c2ccc(CC)cc2)cc1 and give its measured pIC50.
Key: > 7.00

Exercise: Requested read-out: pIC50. Entry: CCC(F)(F)c1ccc(CNC(=O)[C@H]2CN(c3cnc4ncncc4n3)CCN2S(=O)(=O)c2ccc(OC(F)(F)F)cc2)cc1
Key: > 7.00

Exercise: Report pIC50 for N#Cc1ncc2sc(N3CCN(S(=O)(=O)c4ccc(C(F)(F)F)cc4)[C@@H](C(=O)NCc4ccc(OC(F)(F)F)cc4)C3)nc2n1 please.
Key: > 7.00

Exercise: Bench note: what pIC50 did CC(=O)N1CCN(S(=O)(=O)c2ccc(OC(F)(F)F)cc2)[C@@H](C(=O)NCCCc2cccc(O)c2)C1 show?
Key: < 6.00

Exercise: Recorded pIC50 for Cc1ncc2nc(N3CCN(S(=O)(=O)c4ccc(OC(F)(F)F)cc4)[C@@H](C(=O)NCc4ccc(OC(F)(F)F)cc4)C3)sc2n1 , please?
Key: 6.00 to 7.00

Exercise: Could you tell me which pIC50 is on file for O=C(NCc1ccc(OC(F)(F)F)cc1)[C@H]1CN(c2nc3nc(C(F)(F)F)ncc3s2)CCN1S(=O)(=O)c1ccc(OC(F)(F)F)cc1 ?
Key: > 7.00

Exercise: Requested read-out: pIC50. Entry: O=C(O)c1cncc2sc(N3CCN(S(=O)(=O)c4ccc(OC(F)(F)F)cc4)[C@@H](C(=O)NCc4ccc(OC(F)(F)F)cc4)C3)nc12
Key: > 7.00

Exercise: Request the reported pIC50 associated with CCCc1ccc(CNC(=O)[C@H]2CN(c3nc(C)c(C(=O)C(=O)OCC)s3)CCN2S(=O)(=O)c2ccc(OC(F)(F)F)cc2)cc1
Key: 6.00 to 7.00
